measurementProtocol: In vivo pharmacokinetics in dog
Set-up: species or system male Beagle dogs
reportedConditions: male, Beagle, plasma, IV 1.0 mg/kg, mean, read-out: Vdss
resultType: Vd (L/kg)
I only need the number, in L/kg, no unit after it.

Prompt line: Reported Vd, molecule `Cc1c(C(=O)Nc2ccc3c(c2)B(O)OC3)nnn1-c1ccccn1` : ____
Response line: 1.31

----------
measurementProtocol: Liver microsome stability, human
Assay type: in vitro ADME
reportedConditions: human liver microsomes, pH 7.4, Table 4, read-out: HLM Clint
resultType: microsomal CLint at 2 h, 1 µM

Known results for compounds:
> print(dat)
                                smilesinput         result
1  Cn1nc(C(=O)Nc2ccc3c(c2)B(O)OC3)cc1-c1ccccn1   14 µL/min/mg
2  O=C(Nc1ccc2c(c1)B(O)OC2)c1ccc(F)cc1C(F)(F)F  0.8 µL/min/mg

Prompt line: Reported microsomal CLint at 2 h, 1 µM, compound `Cn1nc(-c2ccccn2)cc1C(=O)Nc1ccc2c(c1)B(O)OC2` : ____
Response line: 18 µL/min/mg
